# assay-overview: Distribution coefficient (logD7.4), shake-flask n-octanol/buffered water
# Assay type: physicochemical
# condition: n-octanol/phosphate buffered saline pH 7.4, shake-flask
# Method: The n-octanol-water coefficients of the phosphane derivatives were determined as previously reported using a shake-flask method. Briefly: Buffered-saline distilled water (100 mL, phosphate buffer [PO4^3−] = 10 mM, [NaCl] = 0.15 M, pH 7.4) and n-octanol (100 mL) were shaken together for 72 h to allow saturation of both phases. […] The concentration of the complexes in the organic and aqueous phases were then determined using UV absorbance spectroscopy. […]
Binary label based on logD7.4 with cut-off 0.4: below gives Condition met, not below gives Condition not met.

Example entries and their recorded answers appear below.
[[record]]
compound = "FC(F)(F)C(F)(F)C(F)(F)C(F)(F)C(F)(F)C(F)(F)CC[N+]12CN3CN(C1)C[P+]([Au-2]([Cl])[P+]14CN5CN(C[N+](CCC(F)(F)C(F)(F)C(F)(F)C(F)(F)C(F)(F)C(F)(F)F)(C5)C1)C4)(C3)C2.O=S(=O)([O-])C(F)(F)F.O=S(=O)([O-])C(F)(F)F [Complex 2b, [AuCl(PTA-CH2CH2(CF2)5CF3)2](TfO)2]"
class_name = "Condition not met"

[[record]]
compound = "FC(F)(F)C(F)(F)C(F)(F)C(F)(F)C(F)(F)C(F)(F)CC[N+]12CN3CN(C1)C[P+]([Au-][S]c1ccccn1)(C3)C2.O=S(=O)([O-])C(F)(F)F [Complex 3b, [Au(C5H5NS)(PTA-CH2CH2(CF2)5CF3)](TfO)]"
class_name = "Condition not met"


Does the reported logD7.4 of CCCCCCCC[N+]12CN3CN(C1)C[P+]([Au-][S]c1ccccn1)(C3)C2.[I-] [Complex 3a, [Au(C5H5NS)(PTA-CH2(CH2)6CH3)]I] stay below 0.4?
Condition met

Does the reported logD7.4 of FC(F)(F)C(F)(F)C(F)(F)C(F)(F)C(F)(F)C(F)(F)CC[N+]12CN3CN(C1)C[PH]([Au][Cl])(C3)C2.O=S(=O)([O-])C(F)(F)F [Complex 1b, [AuCl(PTA-CH2CH2(CF2)5CF3)]TfO] stay below 0.4?
Condition not met

Does the reported logD7.4 of CCCCCCCC[N+]12CN3CN(C1)C[P+]([Au-2]([Cl])[P+]14CN5CN(C[N+](CCCCCCCC)(C5)C1)C4)(C3)C2.[I-].[I-] [Complex 2a, [AuCl(PTA-CH2(CH2)6CH3)2]I2] stay below 0.4?
Condition met

These measurements were taken from paper PMC8698759.
